Source of measurements: ChEMBL document CHEMBL1137577

Let's look at some compounds and their measured IC50.
Biological target: Thyroid hormone receptor beta (Homo sapiens, UniProt P10828)
Sequence (P10828 whole entry): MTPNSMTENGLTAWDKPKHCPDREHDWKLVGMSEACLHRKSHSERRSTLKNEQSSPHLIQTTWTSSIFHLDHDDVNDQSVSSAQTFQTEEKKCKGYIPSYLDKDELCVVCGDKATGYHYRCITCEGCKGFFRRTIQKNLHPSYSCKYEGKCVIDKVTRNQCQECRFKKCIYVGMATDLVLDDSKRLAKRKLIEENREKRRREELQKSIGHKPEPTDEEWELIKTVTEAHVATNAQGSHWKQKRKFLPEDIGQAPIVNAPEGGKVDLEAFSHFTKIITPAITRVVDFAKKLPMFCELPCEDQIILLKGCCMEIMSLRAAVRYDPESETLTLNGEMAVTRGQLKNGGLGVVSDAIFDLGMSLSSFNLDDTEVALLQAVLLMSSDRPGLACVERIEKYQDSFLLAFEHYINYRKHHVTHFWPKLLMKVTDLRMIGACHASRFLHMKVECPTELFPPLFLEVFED
Experiment: Displacement of labeled SRC2-2 from human TRbeta expressed in BL21 (DE3) cells FP assay
Output spec: scalar in µM, unitless text.

Below, each entry is followed by its recorded IC50 result.
> print(dat)
                                   compound  units.symbol  experimental.result
1  CCCCCCc1ccc(C(=O)CCN(C2CCCCC2)C2CCCCC2)cc1            µM                 12.7
2         CCCCCCc1ccc(NC(=O)/C=C\C(=O)O)cc1            µM                 20.3
3              CCCCCCc1ccc(C(=O)CCN(C)C)cc1            µM                  4.3
4                  CCCCCCc1ccc(C(=O)CCl)cc1            µM                 23.1
5                 CCCCCCc1ccc(C(=O)CCBr)cc1            µM                    3

Recorded result, CCCCCCc1ccc(C(=O)CCN2CCC(C(=O)OC)CC2)cc1 , IC50: 3.9

Recorded result, C=CC(=O)Nc1ccc(CCCCCC)cc1 , IC50: 17.9

Recorded result, C/C=C/C(=O)c1ccc(CCCCCCC)cc1 , IC50: 7.6

Recorded result, C#CC(=O)Oc1ccc(CCCCCC)cc1 , IC50: 6.2

Recorded result, CCCCCCc1ccc(C(=O)C2CO2)cc1 (stereo unspecified) , IC50: 23.1

Recorded result, CCCCCCc1ccc(C(=O)CCN2CCOCC2)cc1 , IC50: 2.7

Recorded result, CCCCCCc1ccc(C(=O)CCN(C)CCc2ccccc2)cc1 , IC50: 1.5

Recorded result, C=CC(=O)c1ccc(CCCCC)cc1 , IC50: 33.9

Recorded result, CCCC(=O)Nc1cccc2c1CCCC2 , IC50: 69.8

Recorded result, CCCCCCc1ccc(C(=O)CCN(C)CCO)cc1 , IC50: 1.6

Recorded result, C=CC(=O)c1ccc(CC(C)(C)C)cc1 , IC50: 43.5

Recorded result, C=CC(=O)Oc1ccc(CCC)cc1 , IC50: 61

Recorded result, C=CC(=O)Oc1ccccc1CCCCCC , IC50: 8.2

Recorded result, C=C(C)C(=O)c1ccc(CCCCCCC)cc1 , IC50: 23.2

Recorded result, C=CC(=O)Oc1ccc(CCCCC)cc1 , IC50: 55.8

====

Let's look at some compounds and their measured solubility.
Assay: physchem
Conditions: PBS
The number alone won't do; follow it with the unit.

Below, each entry is followed by its recorded solubility result.
> print(dat)
                          smiles.string  experimental.result
1        CCCCCCc1ccc(C(=O)CCN(C)CCO)cc1                97 µM
2  CCCCCCc1ccc(C(=O)CCN(C(C)C)C(C)C)cc1                55 µM
3             C=CC(=O)Nc1ccc(CCCCCC)cc1                47 µM
4       C/C=C(\C)C(=O)c1ccc(CCCCCCC)cc1                36 µM

Recorded result, CCCCCCc1ccc(C(=O)CCN(C)CCc2ccccc2)cc1 , solubility: 15 µM

Recorded result, CCCCCCc1ccc(C(=O)CCBr)cc1 , solubility: 85 µM

Recorded result, CCCCCCCc1ccc(C(=O)/C=C/c2ccccc2)cc1 , solubility: 30 µM

====

Assay: physchem
Conditions: PBS
Rule: solubility under 100 µM gives Not fulfilled, otherwise Fulfilled.

Example entries and their recorded answers appear below.
> print(dat)
                            molecule  assigned.label
1  CCCCCCc1ccc(NC(=O)/C=C\C(=O)O)cc1       Fulfilled
2           C=CC(=O)c1ccc(CCCCCC)cc1   Not fulfilled
3       C/C=C/C(=O)Nc1ccc(CCCCCC)cc1   Not fulfilled
4   CCCCCCc1ccc(C(=O)/C=C\C(=O)O)cc1       Fulfilled
5         CCCCCCc1ccc(C(=O)CCCBr)cc1   Not fulfilled

solubility >= 100 µM for CCCCCCc1ccc(C(=O)CCN(CCCC)CCCC)cc1 ?
Fulfilled

solubility >= 100 µM for CCCCCCc1ccc(C(=O)C2CO2)cc1 (stereo not drawn) ?
Fulfilled

solubility >= 100 µM for C=C(CC(=O)Nc1ccc(CCCCCC)cc1)C(=O)O ?
Fulfilled

solubility >= 100 µM for CCCCCCc1ccc(C(=O)CCN2CCC(C(=O)OC)CC2)cc1 ?
Not fulfilled

solubility >= 100 µM for CCCCCCc1ccc(C(=O)CCN2CCOCC2)cc1 ?
Fulfilled

solubility >= 100 µM for C#CC(=O)Oc1ccc(CCCCCC)cc1 ?
Not fulfilled

solubility >= 100 µM for CCCCCCCc1ccc(C(=O)C=C(C)C)cc1 ?
Not fulfilled

solubility >= 100 µM for C/C=C/C(=O)c1ccc(CCCCCCC)cc1 ?
Not fulfilled

solubility >= 100 µM for CCCCCCc1ccc(C(=O)CCNCCC)cc1 ?
Fulfilled

solubility >= 100 µM for C=C(C)C(=O)c1ccc(CCCCCCC)cc1 ?
Not fulfilled

solubility >= 100 µM for C#CC(=O)Nc1ccc(CCCCCC)cc1 ?
Not fulfilled

solubility >= 100 µM for CCCCCCc1ccc(C(=O)CF)cc1 ?
Not fulfilled

solubility >= 100 µM for CCCCCCc1ccc(NC(=O)C=C(C)C)cc1 ?
Not fulfilled

====

Target: Thyroid hormone receptor alpha (Homo sapiens, UniProt P10827)
Sequence (P10827 whole entry): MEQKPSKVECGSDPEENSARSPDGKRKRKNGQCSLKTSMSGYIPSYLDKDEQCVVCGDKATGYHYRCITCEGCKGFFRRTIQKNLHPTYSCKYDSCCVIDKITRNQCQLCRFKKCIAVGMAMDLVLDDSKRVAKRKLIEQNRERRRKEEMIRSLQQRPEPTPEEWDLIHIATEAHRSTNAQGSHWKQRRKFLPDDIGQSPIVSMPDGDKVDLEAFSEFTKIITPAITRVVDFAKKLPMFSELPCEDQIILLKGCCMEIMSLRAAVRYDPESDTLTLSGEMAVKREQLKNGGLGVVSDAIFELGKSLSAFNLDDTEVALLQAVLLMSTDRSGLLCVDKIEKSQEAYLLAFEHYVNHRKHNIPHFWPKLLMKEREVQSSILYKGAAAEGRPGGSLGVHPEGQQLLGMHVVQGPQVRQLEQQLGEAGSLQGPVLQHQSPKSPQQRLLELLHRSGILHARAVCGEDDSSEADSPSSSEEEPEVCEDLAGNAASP
Rule: IC50 below 20 µM gives Fulfilled, anything at or above gives Not fulfilled.

Example entries and their recorded answers appear below.
> print(dat)
                        smiles.string  assigned.label
1        C/C=C/C(=O)c1ccc(CCCCCCC)cc1       Fulfilled
2             CCCC(=O)Nc1cccc2c1CCCC2   Not fulfilled
3    CCCCCCc1ccc(C(=O)/C=C\C(=O)O)cc1       Fulfilled
4  CCCCCCc1ccc(C(=O)CCN(CCCC)CCCC)cc1       Fulfilled
5           C=CC(=O)c1ccc(CCCCCCC)cc1   Not fulfilled

Please indicate whether the reported IC50 of CCCCCCc1ccc(C(=O)CCN(C(C)C)C(C)C)cc1 is strictly below 20 µM.
Fulfilled

Please indicate whether the reported IC50 of CCCCCCCc1ccc(C(=O)C=C(C)C)cc1 is strictly below 20 µM.
Not fulfilled

Please indicate whether the reported IC50 of CCCCCCc1ccc(C(=O)CCBr)cc1 is strictly below 20 µM.
Fulfilled

====

Assay: Permeability across artificial membrane at pH 7.4 by PAMPA assay
Let's look at some compounds and their measured Papp.
Output spec: scalar in ×10⁻⁶ cm/s, unitless text.

Below, each entry is followed by its recorded Papp result.
> print(dat)
                              smiles.string  experimental.endpoint  experimental.result
1                CCCCCCc1ccc(C(=O)CCCBr)cc1                   Papp                   58
2              C=C(C)C(=O)c1ccc(CCCCCCC)cc1                   Papp                   43
3              C/C=C/C(=O)Nc1ccc(CCCCCC)cc1                   Papp                  432
4  CCCCCCc1ccc(C(=O)CCN2CCC(C(=O)OC)CC2)cc1                   Papp                  145
5             CCCCCCc1ccc(NC(=O)C=C(C)C)cc1                   Papp                   98

Recorded result, C=CC(=O)Nc1ccc(CCCCCC)cc1 , Papp: 833

Recorded result, C#CC(=O)Nc1ccc(CCCCCC)cc1 , Papp: 621

Recorded result, C#CC(=O)Oc1ccc(CCCCCC)cc1 , Papp: 21

Recorded result, C=C(CC(=O)Nc1ccc(CCCCCC)cc1)C(=O)O , Papp: 57

Recorded result, CCCCCCc1ccc(C(=O)CCNCCC)cc1 , Papp: 254
